- MEASUREMENT_TARGET: Prostaglandin G/H synthase 1 (Ovis aries)
- Sequence (P05979 whole entry): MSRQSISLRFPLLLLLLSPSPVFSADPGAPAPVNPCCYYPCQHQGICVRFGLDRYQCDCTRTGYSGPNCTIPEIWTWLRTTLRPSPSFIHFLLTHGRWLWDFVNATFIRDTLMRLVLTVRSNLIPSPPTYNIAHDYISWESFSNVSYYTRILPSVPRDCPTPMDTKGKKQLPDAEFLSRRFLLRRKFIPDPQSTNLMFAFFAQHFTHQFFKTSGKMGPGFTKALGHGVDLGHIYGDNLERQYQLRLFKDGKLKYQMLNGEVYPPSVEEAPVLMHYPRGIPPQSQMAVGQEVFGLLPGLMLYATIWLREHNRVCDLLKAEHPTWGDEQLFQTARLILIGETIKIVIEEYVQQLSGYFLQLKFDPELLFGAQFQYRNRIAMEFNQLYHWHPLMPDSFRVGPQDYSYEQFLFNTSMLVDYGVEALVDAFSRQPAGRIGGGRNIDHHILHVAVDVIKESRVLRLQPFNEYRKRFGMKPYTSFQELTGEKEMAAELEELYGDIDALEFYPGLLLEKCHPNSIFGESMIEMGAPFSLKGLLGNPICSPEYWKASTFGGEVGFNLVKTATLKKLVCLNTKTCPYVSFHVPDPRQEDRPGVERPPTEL
MEASURE: IC50 (µM)
Write it as a number; the unit µM goes unstated.

1) CS(=O)(=O)c1ccc(C2=NN(c3ccc(S(N)(=O)=O)cc3)C(c3ccccc3)C2)cc1 (stereo not given) | 5.4
2) COc1ccc(C2CC(c3ccc(S(C)(=O)=O)cc3)=NN2c2ccc(C(=O)O)cc2)cc1OC (stereo not given) | 9.7
3) COc1cc(C2CC(c3ccc(S(C)(=O)=O)cc3)=NN2c2ccc(C(=O)O)cc2)cc(OC)c1OC (stereo not given) | 13.4
4) COc1cccc(C2CC(c3ccc(S(C)(=O)=O)cc3)=NN2c2ccc(S(N)(=O)=O)cc2)c1 (stereo not given) | 7.1

Consider the record given below.
What value of IC50 on Prostaglandin G/H synthase 1 (Ovis aries) does CS(=O)(=O)c1ccc(C2=NN(c3ccc(S(N)(=O)=O)cc3)C(c3ccc(Cl)cc3)C2)cc1 (stereo not given) have?
8.3
